- ASSAY SUMMARY: CCTE_Shafer_MEA_acute_network_burst_percentage: CCTE's Neural Acute Assay for Percentage of Network Bursts, Shafer Lab (AID 2284022);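 note: curves fitted for loss so actives lower network burst percentage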
The source made the active and inactive calls. Rule for the calls: active = hit-call score of the fitted dose curve at least 0.9, where 1 is the maximum; inactive = score below 0.9.
Possible outcomes: Y = active, N = inactive

INSERT INTO assay_data (compound, group) VALUES
  ('C#CCOS(=O)OC1CCCCC1Oc1ccc(C(C)(C)C)cc1 (configuration not stated)', 'N'),
  ('CCCN(CCC)c1c([N+](=O)[O-])cc(S(N)(=O)=O)cc1[N+](=O)[O-]', 'N'),
  ('CC(Oc1ccc(Cl)cc1Cl)C(=O)O (configuration not stated)', 'N'),
  ('COP(=S)(OC)Oc1nc(Cl)c(Cl)cc1Cl', 'N'),
  ('CC(C)Oc1cc(-n2nc(C(C)(C)C)oc2=O)c(Cl)cc1Cl', 'N'),
  ('CCCCNC(=O)OCC#CI', 'Y'),
  ('COc1ccc(C(c2ccc(OC)cc2)C(Cl)(Cl)Cl)cc1', 'Y'),
  ('CCOP(=S)(OCC)SCn1c(=O)oc2cc(Cl)ccc21', 'Y'),
  ('CC(C)(C)c1ccc(CSc2cnn(C(C)(C)C)c(=O)c2Cl)cc1', 'Y'),
  ('CO/C=C(/C(=O)OC)c1ccccc1Oc1cc(Oc2ccccc2C#N)ncn1', 'Y'),
  ('Cc1c(F)c(F)c(COC(=O)C2C(/C=C(\Cl)C(F)(F)F)C2(C)C)c(F)c1F (configuration not stated)', 'Y'),
  ('N#Cc1nn(-c2c(Cl)cc(C(F)(F)F)cc2Cl)c(N)c1S(=O)C(F)(F)F (configuration not stated)', 'N'),
  ('CNC(=O)ON=CC(C)(C)SC', 'N'),
  ('C=CCC1=C(C)[C@@H](OC(=O)[C@@H]2[C@@H](C=C(C)C)C2(C)C)CC1=O', 'Y'),
  ('COC(=O)C(C)Oc1ccc(Oc2ccc(Cl)cc2Cl)cc1 (configuration not stated)', 'Y'),
  ('O=C(O)c1nc(Cl)ccc1Cl', 'N'),
  ('CS/C(C)=N/OC(=O)N(C)SN(C)C(=O)O/N=C(\C)SC', 'N');

----------
- Read-out: Plasminogen activator inhibitor-1 (PAI1), SERPINE1 (gene 5054)
- ASSAY SUMMARY: BSK_BE3C_PAI1: BioMAP Diversity Plus: BE3C Assay for Plasminogen activator inhibitor-1 (PAI1) Biomarker Activity (AID 2283037)
- TEST CONDITIONS: primary human bronchial epithelial cells; actives raise or lower the signal
Activity calls are given as the source filed them. The calls were made as follows: active = hit-call score of the fitted dose curve at least 0.9, where 1 is the maximum; inactive = score below 0.9.
Possible outcomes: active, inactive

INSERT INTO assay_data (molecule, group) VALUES
  ('CCOC(=O)CC(SP(=S)(OC)OC)C(=O)OCC (stereo not drawn)', 'inactive'),
  ('COC(=O)C=C(C)OP(=O)(OC)OC', 'inactive'),
  ('COC(=O)c1ccccc1C(=O)OC', 'inactive'),
  ('CON(C)C(=O)Nc1ccc(Cl)c(Cl)c1', 'inactive'),
  ('CC1COC(Cn2cncn2)(c2ccc(Oc3ccc(Cl)cc3)cc2Cl)O1 (stereo not drawn)', 'active'),
  ('N#CC(CCc1ccc(Cl)cc1)(Cn1cncn1)c1ccccc1 (stereo not drawn)', 'inactive'),
  ('COc1nc(NC(C)C)nc(NC(C)C)n1', 'inactive'),
  ('CCCCNC(=O)OCC#CI', 'active'),
  ('CCOC(=O)C(Cl)Cc1cc(-n2nc(C)n(C(F)F)c2=O)c(F)cc1Cl (stereo not drawn)', 'inactive'),
  ('COP(=S)(OC)Oc1nc(Cl)c(Cl)cc1Cl', 'inactive'),
  ('N#Cc1cc(Br)c(O)c(Br)c1', 'active'),
  ('CCCCOC(=O)c1ccccc1C(=O)OCCCC', 'inactive'),
  ('CC(Oc1ccc(Cl)cc1Cl)C(=O)O (stereo not drawn)', 'inactive'),
  ('CC(C)Oc1cc(-n2nc(C(C)(C)C)oc2=O)c(Cl)cc1Cl', 'active'),
  ('COc1ccc(C(c2ccc(OC)cc2)C(Cl)(Cl)Cl)cc1', 'active'),
  ('O=C(O)c1nc(Cl)ccc1Cl', 'inactive'),
  ('C=CCC1=C(C)[C@@H](OC(=O)[C@@H]2[C@@H](C=C(C)C)C2(C)C)CC1=O', 'active'),
  ('CC(C)(C)c1ccc(CSc2cnn(C(C)(C)C)c(=O)c2Cl)cc1', 'active'),
  ('CCOc1cc(Oc2ccc(C(F)(F)F)cc2Cl)ccc1[N+](=O)[O-]', 'inactive'),
  ('Cc1ccc(-c2c(Cl)nc(C#N)n2S(=O)(=O)N(C)C)cc1', 'active'),
  ('O=C(O)COc1nc(Cl)c(Cl)cc1Cl', 'inactive'),
  ('Fc1ccc(Oc2ccnc3cc(Cl)cc(Cl)c23)cc1', 'active'),
  ('CCNc1nc(Cl)nc(NC(C)C)n1', 'inactive'),
  ('CNC(=O)ON=CC(C)(C)SC', 'inactive'),
  ('C=CC1(C)OC(=O)N(c2cc(Cl)cc(Cl)c2)C1=O (stereo not drawn)', 'inactive'),
  ('COc1nc(C)nc(NC(=O)NS(=O)(=O)c2ccccc2Cl)n1', 'inactive'),
  ('CC1=C(C(=O)Nc2ccccc2)SCCO1', 'inactive'),
  ('CCOP(=S)(OCC)SCn1c(=O)oc2cc(Cl)ccc21', 'inactive');

----------
- ASSAY SUMMARY: APR_HepG2_CellCycleArrest_72hr: Apredica 72-hour HepG2 Assay for Cell Cycle Arrest (AID 2282914)
- TEST CONDITIONS: high-content imaging, actives raise or lower the signal
Calls of active or inactive are those of the source. Rule for the calls: active = hit-call score of the fitted dose curve at least 0.9, where 1 is the maximum; inactive = score below 0.9.
Possible outcomes: True = active, False = inactive

INSERT INTO measurements (molecule, group) VALUES
  ('CC(C)Oc1cc(-n2nc(C(C)(C)C)oc2=O)c(Cl)cc1Cl', 'False'),
  ('N#Cc1cc(Br)c(O)c(Br)c1', 'True'),
  ('COc1cnc(OC)n2nc(NS(=O)(=O)c3c(OCC(F)F)cccc3C(F)(F)F)nc12', 'False'),
  ('COc1nc(NC(C)C)nc(NC(C)C)n1', 'False'),
  ('COP(N)(=O)SC (stereo not drawn)', 'False'),
  ('COC(=O)C=C(C)OP(=O)(OC)OC', 'False'),
  ('CCc1nn(C)c(C(=O)NCc2ccc(C(C)(C)C)cc2)c1Cl', 'False'),
  ('CCNc1nc(Cl)nc(NC(C)C)n1', 'False'),
  ('COc1nc(C)nc(NC(=O)NS(=O)(=O)c2ccccc2Cl)n1', 'False'),
  ('CC(Oc1ccc(Cl)cc1Cl)C(=O)O (stereo not drawn)', 'False'),
  ('CCCCNC(=O)n1c(NC(=O)OC)nc2ccccc21', 'True'),
  ('CC(C)C1(C)N=C(c2nc3ccccc3cc2C(=O)O)NC1=O (stereo not drawn)', 'False'),
  ('CC1=C(C(=O)Nc2ccccc2)SCCO1', 'False');

----------
- ASSAY SUMMARY: CCTE_Mundy_HCI_iCellGluta_NOG_NeuronCount: CCTE's Neurite Outgrowth Assay in iCellGluta cells for Neuron Count, Mundy Lab (AID 2284340);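 note: cells fixed about 48 h after compound addition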
Results filed as inconclusive are left out. Activity calls are given as the source filed them. How the source made its calls: active means hit-call score of the fitted dose curve at least 0.9, where 1 is the maximum; inconclusive means response in the unintended direction; inactive means score below 0.9.
Possible outcomes: TRUE = active, FALSE = inactive

INSERT INTO assay_data (molecule, group) VALUES
  ('CCCCOC(=O)c1ccccc1C(=O)OCCCC', 'FALSE'),
  ('CCOc1cc(Oc2ccc(C(F)(F)F)cc2Cl)ccc1[N+](=O)[O-]', 'TRUE'),
  ('C=CC1(C)OC(=O)N(c2cc(Cl)cc(Cl)c2)C1=O (stereo not given)', 'FALSE'),
  ('C=CCC1=C(C)C(OC(=O)C2C(C=C(C)C)C2(C)C)CC1=O (stereo not given)', 'FALSE'),
  ('CCCCC(CC)COC(=O)c1ccccc1C(=O)OCC(CC)CCCC (stereo not given)', 'TRUE');

----------
- TESTED TARGET: Retinoic acid receptor RXR-alpha (Homo sapiens)
- ASSAY SUMMARY: OT_NURR1_NURR1RXRa_1440: Odyssey Thera (OT) 24-hour HEK293T Protein Complementation Assay for Nurr1/retinoid X receptor (RXR) (AID 2283386)
Inconclusive results are not listed. The source made the active and inactive calls. Rule for the calls: active = hit-call score of the fitted dose curve at least 0.9, where 1 is the maximum; inconclusive = response in the unintended direction; inactive = score below 0.9.
Possible outcomes: 1 (yes) = active, 0 (no) = inactive

INSERT INTO assay_data (molecule, group) VALUES
  ('CCNc1nc(Cl)nc(NC(C)C)n1', '0 (no)'),
  ('Cc1ccc(-c2c(Cl)nc(C#N)n2S(=O)(=O)N(C)C)cc1', '0 (no)'),
  ('CCCCOC(=O)c1ccccc1C(=O)OCCCC', '0 (no)'),
  ('CC(C)(C)c1ccc(CSc2cnn(C(C)(C)C)c(=O)c2Cl)cc1', '0 (no)'),
  ('O=C(O)COc1nc(Cl)c(Cl)cc1Cl', '0 (no)'),
  ('COc1nc(NC(C)C)nc(NC(C)C)n1', '0 (no)'),
  ('COc1ccc(C(c2ccc(OC)cc2)C(Cl)(Cl)Cl)cc1', '0 (no)'),
  ('Cc1cc(Cl)ccc1OCC(=O)O', '0 (no)'),
  ('CCc1nn(C)c(C(=O)NCc2ccc(C(C)(C)C)cc2)c1Cl', '1 (yes)'),
  ('CC1=C(C(=O)Nc2ccccc2)SCCO1', '0 (no)'),
  ('C=CC1(C)OC(=O)N(c2cc(Cl)cc(Cl)c2)C1=O (stereo not drawn)', '0 (no)'),
  ('CCON=C(CC)C1=C(O)CC(c2c(C)cc(C)cc2C)CC1=O (stereo not drawn)', '0 (no)'),
  ('COP(=S)(OC)Oc1nc(Cl)c(Cl)cc1Cl', '0 (no)');
